Measurement Target: FGFR3 kinase (Homo sapiens, UniProt P22607)
Sequence (P22607 23-806): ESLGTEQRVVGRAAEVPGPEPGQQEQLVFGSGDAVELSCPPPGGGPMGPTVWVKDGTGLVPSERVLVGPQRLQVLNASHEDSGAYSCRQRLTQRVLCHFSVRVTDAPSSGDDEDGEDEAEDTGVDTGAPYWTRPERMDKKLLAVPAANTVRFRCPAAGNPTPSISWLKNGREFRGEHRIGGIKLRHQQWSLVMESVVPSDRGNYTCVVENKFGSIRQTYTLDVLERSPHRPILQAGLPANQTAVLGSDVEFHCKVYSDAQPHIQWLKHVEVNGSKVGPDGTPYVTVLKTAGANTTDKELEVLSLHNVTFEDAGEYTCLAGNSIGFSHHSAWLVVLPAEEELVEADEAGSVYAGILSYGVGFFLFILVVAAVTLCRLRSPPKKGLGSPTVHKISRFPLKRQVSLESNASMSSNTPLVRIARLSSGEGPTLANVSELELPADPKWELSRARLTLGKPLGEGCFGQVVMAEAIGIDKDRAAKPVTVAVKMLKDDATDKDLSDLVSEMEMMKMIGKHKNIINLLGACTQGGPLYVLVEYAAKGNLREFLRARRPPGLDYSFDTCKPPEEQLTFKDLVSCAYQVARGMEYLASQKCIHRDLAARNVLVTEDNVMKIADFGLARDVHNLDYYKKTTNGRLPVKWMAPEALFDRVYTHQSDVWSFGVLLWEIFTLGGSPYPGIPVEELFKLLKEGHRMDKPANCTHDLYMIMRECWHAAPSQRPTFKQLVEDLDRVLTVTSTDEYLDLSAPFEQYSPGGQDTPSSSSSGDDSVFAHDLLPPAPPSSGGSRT
Method: Z-Lyte Kinase Assay of FGFR3
Type: biochemical
pIC50: −log10 of the molar value.
Endpoint: pIC50

CCCN1CC(c2ccc(Nc3ncc(OCc4cc(C(=O)NC)cc(OC)c4F)cn3)cn2)C1 [Compound 241]
7.72
CNC(=O)c1cc(CCc2cnc(Nc3ccc(N4CCN(C)CC4)c(OC)c3)nc2)c(Cl)c(OC)c1 [Compound 177]
8.22
CNC(=O)c1cc(COc2cnc(Nc3cccc(OC)c3)nc2)c(F)c(OC)c1 [Compound 212]
7.10
CNC(=O)c1cc(COc2cnc(Nc3ccc4c(c3)NC(=O)C4(C)C)nc2)c(F)c(OC)c1 [Compound 230]
7.35
CCN1CCC(c2ccc(Nc3ncc(OCc4cc(C(=O)NC)cc(OC)c4F)cn3)cc2)CC1 [Compound 252]
7.80

a. CNC(=O)c1cc(COc2cnc(Nc3ccc(OC)c(OC)c3)nc2)c(F)c(OC)c1 [Compound 218]
b. CCn1cc(Nc2ncc(/C=C/c3cc(C(=O)NC)cc(OC)c3Br)cn2)cn1 [Compound 3]
// query Between a and b , whose recorded pIC50 is greater? Could you answer with the label of the item you picked?
// result a

A. CCN1CCN(c2ccc(Nc3ccc(CCc4cc(OC)cc(C(=O)NOC)c4)cn3)cc2)CC1 [Compound 73]
B. CNC(=O)c1cc(COc2cnc(Nc3ccc(N4CCN(C)CC4)nc3)nc2)c(Cl)c(OC)c1 [Compound 263]
// query Between A and B , whose recorded pIC50 is greater? Could you answer with the label of the item you picked?
// result B

1. CNC(=O)c1cc(COc2cnc(Nc3cnc(N4C[C@@H](C)N[C@@H](C)C4)c(F)c3)nc2)c(F)c(OC)c1 [Compound 277]
2. C#Cc1ccc(Nc2ncc(OCc3cc(C(=O)NC)cc(OC)c3F)cn2)cn1 [Compound 211]
// query Could you determine which record has the numerically smaller pIC50? Candidates: 1 and 2 Could you answer with the label of the item you picked?
// result 2
(2: 7.38, 1: 7.74)

a. CNC(=O)c1cc(COc2cnc(Nc3ccc([C@@H]4CCCNC4)nc3)nc2)c(Cl)c(OC)c1 [Compound 244]
b. CNC(=O)c1cc(COc2cnc(Nc3ccc(-n4nccn4)cc3)nc2)c(Cl)c(OC)c1 [Compound 233]
c. CNC(=O)c1cc(CCc2cnc(Nc3ccc(C(C)(C)C#N)nc3)nc2)c(F)c(OC)c1 [Compound 142]
d. C#Cc1cccc(Nc2ncc(OCc3cc(C(=O)NC)cc(OC)c3F)cn2)c1 [Compound 210]
// query Could you please order the items by pIC50, going from the lowest number to the highest? Form field (ranking): labels in requested order.
// result b, d, c, a

A. CNC(=O)c1cc(COc2cnc(Nc3ccc(N4CCOCC4)c(OC)c3)nc2)c(F)c(OC)c1 [Compound 261]
B. CNC(=O)c1cc(CCc2cnc(Nc3ccc(N4CCN(C)CC4)c(OC)c3)nc2)c(F)c(OC)c1 [Compound 172]
// query Could you determine which record has the numerically smaller pIC50? Candidates: A and B Could you answer with the label of the item you picked?
// result A

1. CNC(=O)c1cc(COc2cnc(Nc3ccnc(N4C[C@@H](C)N[C@@H](C)C4)c3)nc2)c(F)c(OC)c1 [Compound 259]
2. CNC(=O)c1cc(CCc2cnc(Nc3ccc(N4C[C@@H](C)N(C)[C@@H](C)C4)cc3)nc2)c(Cl)c(OC)c1 [Compound 175]
3. CCN(CC)CCOc1ccc(Nc2ncc(OCc3cc(C(=O)NC)cc(OC)c3F)cn2)cc1 [Compound 262]
4. CNC(=O)c1cc(COc2cnc(Nc3cccc(-n4nccn4)c3)nc2)c(Cl)c(OC)c1 [Compound 232]
// query Rank entries according to their pIC50, from the largest number down. Form field (ranking): labels in requested order.
// result 2, 1, 3, 4

A. CNC(=O)c1cc(COc2cnc(Nc3cnn(C[C@H](O)CO)c3)nc2)c(F)c(OC)c1 [Compound 220]
B. CNC(=O)c1cc(CCc2cnc(Nc3cnn(C[C@H](C)O)c3)nc2)c(Cl)c(OC)c1 [Compound 88]
// query Between A and B , whose recorded pIC50 is greater? Could you answer with the label of the item you picked?
// result B
(B: 8.52, A: 8.10)
